Molecular target: T1, scHLA-B27-mmH (engineered HLA-B*27 ectodomain in-line fusion protein) (human (HLA-B*2705, beta-2 …))
T1 construct: also called soluble HLA-B*27 fusion protein
Experiment: SPR (Biacore), mAb captured, 25 C, PBS pH 5.75
Quick reference: t1/2 of the listed items.
Answer format: numeric, min implied, no suffix.

binder="H4H2528P (antibody, V domains shown) VH: QVQLVESGGGVVQPGRSLRLSCAASGFTFSRFGMDWVRQAPGKGLEWVAVISYDGKNKLYADSVKGRFTISRDNSKNTLYLQMNSLRAEDTAVYYCAKEGDNWNFVGDSWGQGTLVTVSS VL: DIQMTQSPSSVSASVGDRVTITCRASQGISARLAWYQQKPGKAPKLLIYAASSLQSGVPSRFSGSGSGTYFTLTISNLQPEDFATYYCQQANSFPYTLGQGTKLEIK" measured_parameter=t1/2 measured_number=135

Look at this binder and give its reported t1/2. H4H2480N (antibody, V domains shown) VH: QVQLQQWGAGLLKPSETLSLTCAVYGGSFSGYYWSWIRQTPGKGLEWIGEISHSGNNNYNPSLKSRVTMSKDTSKNQFSLKLSSVTAADTAVYYCARIQLWLRGNDYYGMDVWGQGITVTVSS VL: DIQMTQSPSSLSASVGDRVTITCRASQGIRNDLGWYQQKPGKAPKRLIYAASSLQGGVPSRFSGSGSGTEFTLTISSLQPEDFATYYCLQHNSYPWTFGQGTKVEIK
5
